Test system: sucrase
assay-text: Sucrase inhibitory activity assay (sucrose substrate, glucose oxidase method)
Type: biochemical, Leuconostoc mesenteroides
measurement-context: at a concentration of 20 µM
Procedure: Estimates of sucrase activity were obtained using the method outlined by […] et al. with slight modifications. Sucrose and sucrase derived from Leuconostoc mesenteroides were obtained from Sigma Chemical Co. (St. Louis, MO, USA). […] The mixtures were incubated at 37 °C for 60 min and then at 100 °C for a further 10 min to stop the reaction. […] All samples were assessed in terms of sucrase inhibitory activity under a range of concentrations (0-50 μM).
This listing pairs compounds with measured sucrase inhibition.
readout-kind: sucrase inhibition (%)

compound="O=C(OC1Cc2c(O)cc(O)c(C3c4c(O)cc(O)cc4OC(c4ccc(O)c(O)c4)C3O)c2OC1c1ccc(O)c(O)c1)c1cc(O)c(O)c(O)c1 (stereo not drawn) [B2-3’-O-gallate, epicatechin-(4β,8)-epicatechingallate]" readout_number=84.6
compound="O=C(O[C@@H]1Cc2c(O)cc(O)cc2O[C@@H]1c1ccc(O)c(O)c1)c1cc(O)c(O)c(O)c1 [ECG, epicatechin gallate]" readout_number=56.1
compound="O=c1c(O)c(-c2ccc(O)c(O)c2)oc2cc(O)cc(O)c12 [quercetin, reference compound]" readout_number=51.7
compound="Oc1cc(O)c2c(c1)O[C@H](c1ccc(O)c(O)c1)[C@H](O)C2 [EC, epicatechin]" readout_number=51.4

----------
This listing pairs compounds with measured inhibition at 10 µM.
target-under-test: maltase (Saccharomyces cerevisiae, UniProt P53341)
Construct: purchased Sigma Chemical Co. (St. Louis, MO, USA)
Sequence (P53341 whole entry): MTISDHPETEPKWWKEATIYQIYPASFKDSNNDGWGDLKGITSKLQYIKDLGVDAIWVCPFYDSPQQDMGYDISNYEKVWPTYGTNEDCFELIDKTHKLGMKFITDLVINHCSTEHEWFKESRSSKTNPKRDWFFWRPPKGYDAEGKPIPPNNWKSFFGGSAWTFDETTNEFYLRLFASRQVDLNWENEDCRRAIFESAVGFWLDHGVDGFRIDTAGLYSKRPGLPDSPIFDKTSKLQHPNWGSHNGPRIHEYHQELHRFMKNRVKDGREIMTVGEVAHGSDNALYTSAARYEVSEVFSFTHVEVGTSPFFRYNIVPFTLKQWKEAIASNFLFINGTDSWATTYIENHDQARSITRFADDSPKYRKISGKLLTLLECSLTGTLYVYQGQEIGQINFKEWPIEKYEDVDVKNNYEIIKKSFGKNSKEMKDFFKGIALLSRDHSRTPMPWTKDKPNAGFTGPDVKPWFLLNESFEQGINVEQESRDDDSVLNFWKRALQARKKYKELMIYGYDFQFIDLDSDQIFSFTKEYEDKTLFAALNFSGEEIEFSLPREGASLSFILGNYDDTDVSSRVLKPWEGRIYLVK
assay-text: Maltase inhibitory activity assay (maltose substrate, glucose oxidase method)
Format: biochemical
measurement-context: read-out: maltase inhibition
readout-kind: inhibition at 10 µM (%)

compound="O=c1c(O)c(-c2ccc(O)c(O)c2)oc2cc(O)cc(O)c12 [quercetin, reference compound]" target_under_test="maltase (Saccharomyces cerevisiae, UniProt P53341)" readout_number=56.3
compound="Oc1cc(O)c2c(c1)O[C@H](c1ccc(O)c(O)c1)[C@H](O)C2 [EC, epicatechin]" target_under_test="maltase (Saccharomyces cerevisiae, UniProt P53341)" readout_number=66.3
compound="O=C(OC1Cc2c(O)cc(O)c(C3c4c(O)cc(O)cc4OC(c4ccc(O)c(O)c4)C3O)c2OC1c1ccc(O)c(O)c1)c1cc(O)c(O)c(O)c1 (stereo not drawn) [B2-3’-O-gallate, epicatechin-(4β,8)-epicatechingallate]" target_under_test="maltase (Saccharomyces cerevisiae, UniProt P53341)" readout_number=90.7
compound="O=C(O[C@@H]1Cc2c(O)cc(O)cc2O[C@@H]1c1ccc(O)c(O)c1)c1cc(O)c(O)c(O)c1 [ECG, epicatechin gallate]" target_under_test="maltase (Saccharomyces cerevisiae, UniProt P53341)" readout_number=87.7

----------
target-under-test: maltase (Saccharomyces cerevisiae, UniProt P53341)
Construct: purchased Sigma Chemical Co. (St. Louis, MO, USA)
assay-text: Maltase inhibition kinetics (Lineweaver–Burk and Dixon plots)
Format: biochemical
measurement-context: Dixon plot; binding to maltase–maltose complex
readout-kind: Ki’ maltase (uncompetitive inhibition constant) (µM)

compound="Oc1cc(O)c2c(c1)O[C@H](c1ccc(O)c(O)c1)[C@H](O)C2 [EC, epicatechin]" target_under_test="maltase (Saccharomyces cerevisiae, UniProt P53341)" reading_unit=µM readout_number=18.88
compound="O=C(O[C@@H]1Cc2c(O)cc(O)cc2O[C@@H]1c1ccc(O)c(O)c1)c1cc(O)c(O)c(O)c1 [ECG, epicatechin gallate]" target_under_test="maltase (Saccharomyces cerevisiae, UniProt P53341)" reading_unit=µM readout_number=6.38
compound="O=c1c(O)c(-c2ccc(O)c(O)c2)oc2cc(O)cc(O)c12 [quercetin, reference compound]" target_under_test="maltase (Saccharomyces cerevisiae, UniProt P53341)" reading_unit=µM readout_number=14.97
compound="O=C(OC1Cc2c(O)cc(O)c(C3c4c(O)cc(O)cc4OC(c4ccc(O)c(O)c4)C3O)c2OC1c1ccc(O)c(O)c1)c1cc(O)c(O)c(O)c1 (stereo not drawn) [B2-3’-O-gallate, epicatechin-(4β,8)-epicatechingallate]" target_under_test="maltase (Saccharomyces cerevisiae, UniProt P53341)" reading_unit=µM readout_number=3.73
